// data source = PubChem BioAssay AID588334

activation: recorded values
- Assay Comment: MITF-driven TRPM1 luciferase induction in melanoma cells – cell-based, SK-MEL-5, single point, primary screen (AID 588334);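 further: 0% = neutral control wells and 100% = parthenolide positive control wells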
- Experimental Setup: SK-MEL-5 TRPM1-promoter luciferase, 24 h; at 12.5 µM; stronger effect = higher value; % of positive control, neutral wells = 0
About 2,300 (0.77%) of roughly 300,000 compounds were called active. Only a selection was taken, and actives are over-represented in it overall.
API: value field is a number in %; no unit string.

| Molecule | activation [%] |
| --- | --- |
| COC(=O)c1ccc(NC(=O)Nc2ccc(C)cc2)cc1 | 25.4 |
| Cc1nc2cc(NC(=O)NCc3ccccc3)ccc2o1 | 14.2 |
| CS(=O)(=O)N1CCc2cc(C(=O)Nc3ccccc3Br)ccc21 | 85.3 |
| CS(=O)(=O)N1CCc2cc(C(=O)Nc3ccccc3)ccc21 | 49.3 |
| c1ccc(-c2nnc(SCc3nc4ccccc4[nH]3)o2)cc1 | -11.4 |

(Q) Which activation is reported for this molecule? Cc1ccc(C(=O)CNc2ccc(F)cc2)cc1
(A) -0.394

(Q) Dear colleague, I am looking for the recorded activation of the following molecule: Cc1cc([N+](=O)[O-])ccc1NC(=O)C1CCCO1 (configuration not stated)
(A) -1.67

(Q) So what does the record say about activation for Cc1ccc(NC(=O)Nc2ccc3oc(C)nc3c2)cc1 ?
(A) 92.6

(Q) For the molecule COc1ccc(CC(=O)N[C@@H]2c3cc(OC)c(OC)cc3C[C@H]2OCc2ccccc2)cc1 , what activation is on record?
(A) -0.621

(Q) Recorded activation of CCC(C)C1(C2CCCC2)NC(=O)NC1=O (configuration not stated) , please.
(A) -0.575

(Q) Given the entry Cc1nc2ccc(NC(=O)C(F)(F)F)cc2o1 , report its measured activation.
(A) -1.51

(Q) Could you share which activation value was measured for CC(=O)c1cccc(NC(=O)Nc2ccc(C)cc2)c1 ?
(A) 104

* * *

Items are presented alongside their recorded activation.
- Assay Comment: MITF-driven TRPM1 luciferase induction in melanoma cells – cell-based, SK-MEL-5, single point, primary screen (AID 588334);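 further: 0% = neutral control wells and 100% = parthenolide positive control wells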
- Experimental Setup: SK-MEL-5 TRPM1-promoter luciferase, 24 h; at 12.5 µM; stronger effect = higher value; % of positive control, neutral wells = 0
The whole screen tested about 300,000 compounds, of which about 2,300 (0.77%) were called active. The list comes from a sample in which actives are over-represented; it also holds close analogues and randomly drawn compounds.
Only the number, expressed in %, is required.

Recorded results for 4 compounds are shown here.
| Compound | activation (%) |
| --- | --- |
| Cc1cc(/C=C2/SC(=O)N(CC(=O)OC(C)C)C2=O)c(C)n1C | 97.9 |
| CC(=O)Nc1ccc(NC(=O)COC(=O)C2CCC(C(C)(C)C)CC2)cc1 (stereo unspecified) | -0.038 |
| Cc1cc([N+](=O)[O-])ccc1NS(=O)(=O)c1ccccc1 | 6.15 |
| Cc1nc2cc(NCc3cccs3)ccc2n1C | 90.7 |

Continue with the next compound.
(Q) Fill in: activation of COC(=O)C1C(=O)c2c([nH]c(C(=O)OCCSC)c2C)CC1C (stereo unspecified) is ___
(A) 92.2

* * *

- Assay Comment: MITF-driven TRPM1 luciferase induction in melanoma cells – cell-based, SK-MEL-5, single point, primary screen (AID 588334);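 further: 0% = neutral control wells and 100% = parthenolide positive control wells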
- Experimental Setup: SK-MEL-5 TRPM1-promoter luciferase, 24 h; at 12.5 µM; stronger effect = higher value; % of positive control, neutral wells = 0
In all, about 300,000 compounds went through this assay and about 2,300 (0.77%) were called active. The list comes from a sample in which actives are over-represented; it also holds close analogues and randomly drawn compounds.
Readout Type: activation (%)
Give your result in % as a bare value.

Worked set:
| Compound | activation / % |
| --- | --- |
| COc1cccc(-c2noc(C3CCCN(C(=O)c4ccc(F)cc4)C3)n2)c1 (stereo unspecified) | -11.5 |
| Cc1cccc(OC(=O)c2sc3ncn(C)c(=O)c3c2C)c1 | 93.6 |
| COc1ccccc1C(=O)Nc1ccc(C)c(S(=O)(=O)N2CCCCC2)c1 | -6.44 |
| Nc1nnc(SCn2nnc3ccccc3c2=O)s1 | -7.75 |
| O=C(c1ccc(F)cc1)N1CCCC(c2nc(-c3cccs3)no2)C1 (stereo unspecified) | -6.36 |
| Cc1cccc(NC(=O)Nc2ccc(OCc3ccccc3)cc2)n1 | -1.41 |
| O=c1c2ccccc2nnn1CSc1nnnn1-c1ccccc1 | 87.9 |
| Cc1cc(NC(=O)C(C)SCC(=O)Nc2cccc(S(=O)(=O)N3CCCCCC3)c2)no1 (stereo unspecified) | -15.9 |
| C[C@H](CO)N1C[C@H](C)[C@H](CN(C)CC2CC2)Oc2ccc(NC(=O)CCN3CCOCC3)cc2C1=O | 4.29 |
| CC1C(C)N(C(=O)CCl)c2ccccc2N1C(=O)CCl (stereo unspecified) | -89.8 |

Now for the compound whose activation we want.
(Q) Which value of activation has been reported for Cc1cccc(NC(=O)COc2ccc(Br)cc2C)n1 in the records?
(A) 198

* * *

- Assay Comment: MITF-driven TRPM1 luciferase induction in melanoma cells – cell-based, SK-MEL-5, single point, primary screen (AID 588334);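 further: 0% = neutral control wells and 100% = parthenolide positive control wells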
- Experimental Setup: SK-MEL-5 TRPM1-promoter luciferase, 24 h; at 12.5 µM; % of positive control, neutral wells = 0
Hit rate of the full screen: of about 300,000 compounds, about 2,300 (0.77%) were called active.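 The calls were made as follows: active = mean activation of at least 80% with every replicate also reaching 80%; inconclusive = mean reaches 80% but some replicate falls short; inactive = the rest.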 This excerpt belongs to a sample that is enriched for actives.
Just give me one of these, please: label 1 (active), label 0 (inactive)

Below are worked cases with known answers.
| Compound | Class Assignment |
| --- | --- |
| NN=C(NN=Cc1ccccc1)c1ccccc1 | label 0 |
| Cc1noc(C)c1CCC(=O)N1CCCC(CO)(Cc2ccccc2)C1 (stereo unspecified) | label 0 |
| CC(C)N(C(=O)[C@H]1C[C@H](CC(=O)NC(C)(C)C)C(=O)N2CCc3c([nH]c4ccc(Cl)cc34)[C@]12C)C(C)C | label 0 |
| Cc1ccc2nc(N3CCN(C(=O)c4ccco4)CC3)sc2c1 | label 1 |
| CC(=O)c1ccc(NC(=O)CSc2nc3ccccc3c(=O)n2CCCN2CCOCC2)cc1 | label 0 |

Shift focus to the following entry.
(Q) In this assay, the call recorded for Cc1ccc2nc(N3C(=O)C(O)=C(C(=O)c4ccco4)C3c3cccc(O)c3)sc2c1 (stereo unspecified) was what?
(A) label 0

* * *

- Assay Comment: MITF-driven TRPM1 luciferase induction in melanoma cells – cell-based, SK-MEL-5, single point, primary screen (AID 588334);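 further: 0% = neutral control wells and 100% = parthenolide positive control wells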
- Experimental Setup: SK-MEL-5 TRPM1-promoter luciferase, 24 h; at 12.5 µM; % of positive control, neutral wells = 0
Out of some 300,000 compounds screened, about 2,300 (0.77%) were called active.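 The calls were made as follows: active = mean activation of at least 80% with every replicate also reaching 80%; inconclusive = mean reaches 80% but some replicate falls short; inactive = the rest.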 The sample as a whole holds a higher share of actives than the screen did.
Write down one outcome, taken from yes = active, no = inactive

Consider the worked cases shown below.
| Molecule | Class Assignment |
| --- | --- |
| CCC(=O)Oc1cccc(C(=O)Nc2ccc(-c3nnc(-c4ccco4)o3)cc2)c1 | yes |
| NC(=O)c1ccc(N2CCCC2)nc1 | no |
| CN(C)C(=O)CCc1ccc2c3c([nH]c2c1)[C@]1(CCc2ccccc2)[C@@H](C(=O)N2CCCCC2)C[C@H](CC(=O)NCCC2=CCCCC2)C(=O)N1CC3 | no |
| CCS(=O)(=O)Nc1ccc(C(=O)NCCSc2ccccc2)cc1 | yes |
| CC(C)(C)OC(=O)N(Cc1ccccc1)Cc1ccc(OCc2cccc(NC(=O)c3ccccc3)c2)cc1 | no |
| CCOc1ccc(Cn2nnc(C(=O)NCc3ccccc3)c2N)cc1 | no |
| COc1ccc(CNCCCn2cnc3c(OCc4ccccc4)ncnc32)cc1 | no |
| O=C(CC(=O)c1cccnc1)c1ccccc1 | no |

(Q) For this molecule, state the assay outcome: C=CC(COCc1ccccc1)N(CC(=O)OC)S(=O)(=O)c1cc(Br)ccc1OC (configuration not stated)
(A) no

(Q) Assay outcome for COc1ccc(-c2noc(CCC(=O)N3CCN(c4cccc(C)c4)CC3)n2)cc1 : what was it?
(A) no

* * *

- Assay Comment: MITF-driven TRPM1 luciferase induction in melanoma cells – cell-based, SK-MEL-5, single point, primary screen (AID 588334);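 further: 0% = neutral control wells and 100% = parthenolide positive control wells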
- Experimental Setup: SK-MEL-5 TRPM1-promoter luciferase, 24 h; at 12.5 µM; stronger effect = higher value; % of positive control, neutral wells = 0
In all, about 300,000 compounds went through this assay and about 2,300 (0.77%) were called active. Shown is part of a subset that was picked to be rich in actives.
// label = Fulfilled if activation is not less than 70%, otherwise Not fulfilled

| Compound | Class Assignment |
| --- | --- |
| Cc1ccccc1Nc1nc(-c2cccnc2)cs1 | Fulfilled |

(Q) Textbook exercise: given the entry COc1ccc(NC(=O)Nc2ccc3nsnc3c2)cc1 , state whether its activation is greater than or equal to 70%.
(A) Fulfilled

(Q) Quick check: does COC(=O)[C@@]1(C)[C@H]2C(=O)N(Cc3ccccc3)C(=O)[C@H]2[C@H]2CN=C(SCC3CC3)N21 have activation greater than or equal to 70%?
(A) Not fulfilled
